Measured pIC50 values are reported for all entries that follow.
biological target: human CCR6 (Homo sapiens); construct: expressed in transfected cells; host or cells: HEK-293; experiment: FLIPR assay (inhibition of CCL20-induced calcium signal); assay type: cell-based; conditions: HEK-293 cells expressing human CCR6; mean values where determined several times; read-out: FLIPR IC50
Sequence (P51684 whole entry): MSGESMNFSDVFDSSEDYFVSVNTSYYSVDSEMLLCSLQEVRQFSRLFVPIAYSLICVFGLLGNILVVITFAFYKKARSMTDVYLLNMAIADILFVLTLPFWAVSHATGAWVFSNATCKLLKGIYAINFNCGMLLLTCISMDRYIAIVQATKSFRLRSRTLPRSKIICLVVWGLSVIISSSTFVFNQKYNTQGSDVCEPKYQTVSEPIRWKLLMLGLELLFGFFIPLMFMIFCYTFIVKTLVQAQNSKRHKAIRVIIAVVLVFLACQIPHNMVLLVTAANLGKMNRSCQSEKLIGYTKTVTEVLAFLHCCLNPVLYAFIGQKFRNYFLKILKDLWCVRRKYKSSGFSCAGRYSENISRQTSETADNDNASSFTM
Worth noting: pIC50 values are minus log10 of concentrations stated in mol/L.

Worked examples, 6 compounds total:
1) CC(C)c1ccc([C@](O)(c2cncc(CCc3cnn(C)c3)c2)C2(C)CN(C)C2)cc1 : 6.36
2) CC(C)c1ccc([C@](O)(c2cncc(CCC3(O)CCCC3)c2)C2(C)CN(C)C2)cc1 : 7.33
3) CC(C)c1ccc([C@](O)(c2cncc(-c3noc(-c4cccnc4)n3)c2)C2(C)CN(C)C2)cc1 : 7.68
4) CC1CCC(c2cncc([C@@](O)(c3ccc(C(C)C)cc3)C3(C)CN(C)C3)c2)O1 (stereo partly shown) : 7.03
5) CC(C)c1ccc([C@](O)(c2cncc(N3CC(c4cnn(C)c4)CC3=O)c2)C2(C)CN(C)C2)cc1 (stereo partly shown) : 6.97
6) CC(C)c1ccc([C@](O)(c2cncc(-c3noc([C@H]4CCC(=O)N4)n3)c2)C2(C)CN(C)C2)cc1 : 6.53

// next entry
// pIC50 lookup, key: CCN1CC(C)([C@](O)(c2ccc(C(C)C)cc2)c2cncc(-c3noc(C(C)(C)O)n3)c2)C1 7.10
